Tested On: KHK-C expressed in NRK-52E cells (Homo sapiens (Human))
Sequence (P50053 whole entry): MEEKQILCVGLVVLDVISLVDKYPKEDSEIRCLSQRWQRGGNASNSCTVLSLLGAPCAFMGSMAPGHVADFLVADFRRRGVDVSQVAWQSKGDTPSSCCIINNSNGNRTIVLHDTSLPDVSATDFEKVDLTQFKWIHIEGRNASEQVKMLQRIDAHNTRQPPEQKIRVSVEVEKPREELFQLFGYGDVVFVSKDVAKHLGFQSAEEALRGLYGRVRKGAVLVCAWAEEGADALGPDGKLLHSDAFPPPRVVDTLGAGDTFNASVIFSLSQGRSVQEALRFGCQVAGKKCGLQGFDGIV
Protocol Description: KHK-C Cell-based Assay (EC50), NRK CTG, fructose-mediated ATP-depletion
pEC50: −log10 of the molar value.
Use 7 as the dividing line for pEC50, with the line itself on the Fulfilled side and lower values as Not fulfilled.

Reference set (5 entries):
- Compound: "C[C@H]1CCN1c1nc2c(c(-c3ccc4c(c3)S(=O)(=O)CNC4=O)n1)CCC2"
  Label Class: "Fulfilled"
- Compound: "C[C@H]1CCN1c1nc2c(c(-c3ccc4c(=O)[nH][nH]c(=O)c4c3)n1)CCC2"
  Label Class: "Not fulfilled"
- Compound: "C[C@H]1[C@H](O)CN1c1nc(-c2ccc3c(c2)C(C)(C)C[C@@H]3NS(C)(=O)=O)c2c(n1)C(F)(F)CC2 (single isomer, unassigned)"
  Label Class: "Fulfilled"
- Compound: "C[C@H]1CCN1c1nc2c(c(-c3nc4ccccc4[nH]3)n1)CCC2"
  Label Class: "Not fulfilled"
- Compound: "C[C@H]1CCN1c1nc2c(c(-c3cn(CCO)nn3)n1)CCC2"
  Label Class: "Not fulfilled"

Enquiry: Does the reported pEC50 for `C[C@H]1[C@H](F)CN1c1nc2c(c(-c3ccc4c(c3)CCNC4=O)n1)CCC2` fall at or above the 7 mark?
Return: Fulfilled

Enquiry: Threshold query (pEC50 >= 7) on `C[C@H]1CCN1c1nc2c(c(-c3cnn(C)c3)n1)CCC2`
Return: Not fulfilled

Enquiry: Could you tell me if the measured pEC50 of C[C@H]1CCN1c1nc(-c2ccc3c(c2)OCC3NS(C)(=O)=O)c2c(n1)C(F)(F)CC2 (some centres unmarked) reaches 7 or more?
Return: Fulfilled

Enquiry: Decide: is the reported value of pEC50 for `C[C@H]1CCN1c1nc(-c2ccccc2)c2c(ncn2C)n1` equal to or greater than 7?
Return: Not fulfilled

Enquiry: Could you tell me if the measured pEC50 of `C[C@H]1CCN1c1nc2c(c(-c3ccc4c(N)nccc4c3)n1)CCC2` reaches 7 or more?
Return: Fulfilled
